# System: Streptococcus pneumoniae
# Experiment: Antimicrobial activity against Streptococcus pneumoniae ATCC BAA-612
# Format: functional
MIC overview
Write down the numeric answer in µg/mL and omit the unit.

| Input smiles | Subject of test | Test result |
| --- | --- | --- |
| CC1(C)S[C@@H]2[C@H](NC(=O)[C@H](N)c3ccc(O)cc3)C(=O)N2[C@H]1C(=O)O | Streptococcus pneumoniae | 0.12 |

(Q) What MIC value was documented for this compound, "CO/N=C(\C(=O)N[C@@H]1C(=O)N2C(C(=O)O)=C(COC(N)=O)CS[C@H]12)c1ccco1" ?
(A) 0.12

(Q) Moving on to "CO/N=C(\C(=O)N[C@@H]1C(=O)N2C(C(=O)O)=C(COC(C)=O)CS[C@H]12)c1csc(N)n1"
(A) 0.06

These data points were gathered from ChEMBL document CHEMBL1255255.
